# system under test: DPP4 (Homo sapiens, UniProt P27487)
# Sequence (P27487 whole entry): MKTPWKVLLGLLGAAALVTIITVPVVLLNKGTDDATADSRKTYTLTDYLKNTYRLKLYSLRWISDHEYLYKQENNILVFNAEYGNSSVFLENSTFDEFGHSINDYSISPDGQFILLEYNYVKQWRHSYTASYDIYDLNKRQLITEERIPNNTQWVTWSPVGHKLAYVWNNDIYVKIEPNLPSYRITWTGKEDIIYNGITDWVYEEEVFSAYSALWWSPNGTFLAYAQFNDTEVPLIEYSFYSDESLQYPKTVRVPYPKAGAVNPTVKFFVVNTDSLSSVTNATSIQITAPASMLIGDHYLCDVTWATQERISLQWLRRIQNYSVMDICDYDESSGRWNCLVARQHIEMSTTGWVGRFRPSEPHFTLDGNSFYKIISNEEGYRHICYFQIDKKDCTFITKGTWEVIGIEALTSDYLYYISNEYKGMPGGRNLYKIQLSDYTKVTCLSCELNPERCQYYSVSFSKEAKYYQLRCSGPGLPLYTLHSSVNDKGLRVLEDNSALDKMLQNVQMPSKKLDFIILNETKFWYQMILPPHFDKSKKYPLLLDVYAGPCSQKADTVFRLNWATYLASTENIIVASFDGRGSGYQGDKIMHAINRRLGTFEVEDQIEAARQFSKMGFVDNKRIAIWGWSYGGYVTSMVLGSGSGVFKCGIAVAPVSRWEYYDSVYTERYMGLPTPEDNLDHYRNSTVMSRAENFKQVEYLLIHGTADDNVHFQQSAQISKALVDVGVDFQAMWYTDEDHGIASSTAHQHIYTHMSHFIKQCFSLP
# protocol description: DPP4 inhibition, fluorogenic substrate H-Gly-Pro-AMC
# Format: biochemical
# Set-up: purchased R&D Systems
# condition notes: read-out: hDPP4 inhibition % at 1 μM
Label yes when inhibition at 1 µM is at or above 6%; anything below gets no.

compound=N#C[C@@H]1CCCN1C(=O)CN1CC[C@H](Oc2cc(OCc3ccccc3)ccn2)C1 category=yes
compound=Cc1oc2ccccc2c1C(=O)N[C@H]1CCN(CC(=O)N2CCC[C@H]2C#N)C1 category=no
compound=N#C[C@@H]1CCCN1C(=O)CN1CC[C@H](NC(=O)c2cccc3occc23)C1 category=no
compound=N#C[C@@H]1CCCN1C(=O)CN1CC[C@H](NC(=O)c2coc3cc(O)ccc23)C1 category=no
compound=N#C[C@@H]1CCCN1C(=O)CN1CC[C@H](Oc2ccc(Cc3ccccc3)cc2)C1 category=yes
compound=N#C[C@@H]1CCCN1C(=O)CN1CC[C@H](Nc2cccc3ccsc23)C1 category=no
compound=N#C[C@@H]1C[C@H](F)CN1C(=O)CN1CCC(Nc2cccc3ncccc23)CC1 category=yes
compound=N#C[C@@H]1C[C@@H]2C[C@@H]2N1C(=O)CN1CC[C@H](Nc2cncc3ccoc23)C1 category=no
compound=N#C[C@@H]1CCCN1C(=O)CN1CC[C@H](Oc2ccccc2Cc2ccccc2)C1 category=yes
compound=N#C[C@@H]1CCCN1C(=O)CN1CC[C@H](NC(=O)c2coc3ccc(F)cc23)C1 category=no
compound=N#C[C@@H]1CCCN1C(=O)CN1CC[C@H](Oc2ccc(-c3ccccc3)cc2)C1 category=yes
compound=N#C[C@@H]1CCCN1C(=O)CN1CC[C@H](Oc2ccc(C(=O)c3ccccc3)cc2)C1 category=yes
compound=N#C[C@@H]1CCCN1C(=O)CN1CC[C@H](Oc2ccccc2-c2cc[nH]n2)C1 category=no
compound=N#C[C@@H]1CCCN1C(=O)CN1CC[C@@H](Nc2cccc3ccsc23)C1 category=no
compound=N#C[C@@H]1CCCN1C(=O)CN1CC[C@H](C(=O)Nc2ccnc3ccccc23)C1 category=yes
compound=N#C[C@@H]1CCCN1C(=O)CN1CC[C@H](NC(=O)c2cnc3ccccc3c2)C1 category=no
compound="COC(=O)C1Cc2ccc(O[C@H]3CCN(CC(=O)N4CCC[C@H]4C#N)C3)cc2O1 (stereo partly drawn)" category=yes
compound=N#C[C@@H]1CCCN1C(=O)CN1CC[C@H](NC(=O)c2cccc3ncccc23)C1 category=no
compound=N#C[C@@H]1CCCN1C(=O)CN1CC[C@H](Oc2ccnc3cc(Br)ccc23)C1 category=no
compound=N#C[C@@H]1CCCN1C(=O)CN1CC[C@H](C(=O)Nc2cnc3ccccc3c2)C1 category=no
compound=N#C[C@@H]1CCCN1C(=O)CN1CC[C@H](Oc2nccc3scc(Br)c23)C1 category=yes
compound=N#C[C@@H]1CC(F)(F)CN1C(=O)CN1CC[C@H](Nc2ccc3ccccc3c2)C1 category=yes
compound=N#C[C@@H]1CCCN1C(=O)CN1CC[C@H](NC(=O)c2cc3ccccc3o2)C1 category=no
compound=N#C[C@@H]1CCCN1C(=O)CN1CC[C@H](Oc2cc(-c3ccc(Br)cc3)no2)C1 category=yes
compound=N#C[C@@H]1CCCN1C(=O)CN1CC[C@H](NC(=O)c2ccccc2-c2ccccc2)C1 category=no
compound=COc1ccc2occ(C(=O)N[C@H]3CCN(CC(=O)N4CCC[C@H]4C#N)C3)c2c1 category=no
compound=N#C[C@@H]1CCCN1C(=O)CN1CC[C@H](Oc2cccc(-c3ccccc3)c2)C1 category=yes
compound=N#C[C@@H]1CCCN1C(=O)CN1CC[C@H](Oc2cccc3cc4ccccc4nc23)C1 category=yes
compound=N#C[C@@H]1CCCN1C(=O)CN1CC[C@@H](C(=O)Nc2ccnc3ccccc23)C1 category=yes
compound=N#C[C@@H]1CCCN1C(=O)CN1CC[C@H](Oc2cccc(C(=O)c3ccccc3)c2)C1 category=yes
compound=COc1cccc2c(C(=O)N[C@H]3CCN(CC(=O)N4CCC[C@H]4C#N)C3)coc12 category=no
